target: FABP7 (Homo sapiens); assay: Fluorescent probe (ANS) displacement from purified FABP7; type: binding; conditions: mean ± S.E., n = 4; Table 1
Sequence (O15540 whole entry): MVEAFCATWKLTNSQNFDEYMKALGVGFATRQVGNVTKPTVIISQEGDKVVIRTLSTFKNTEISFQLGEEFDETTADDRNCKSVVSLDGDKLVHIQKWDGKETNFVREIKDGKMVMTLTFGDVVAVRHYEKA
READOUT KIND: Ki

Consider the reported Ki for these compounds:
{"COMPOUND": "CCCCCC(O)C=CC1C(O)CC(O)C1CC=CCCCC(=O)NCCO (stereo not drawn) [PGF2α-EA, prostamide F2α]", "TEST SYSTEM": "FABP7 (Homo sapiens)", "Ki": "> 50 µM"}
{"COMPOUND": "CCCCC[C@H](O)/C=C/[C@@H]1[C@@H](C/C=C\\CCCC(=O)O)[C@@H](O)C[C@H]1O", "TEST SYSTEM": "FABP7 (Homo sapiens)", "Ki": "> 50 µM"}
{"COMPOUND": "CCCCC[C@H]1O[C@H]1C/C=C\\C/C=C\\C/C=C\\CCCC(=O)O", "TEST SYSTEM": "FABP7 (Homo sapiens)", "Ki": "3.74 µM"}
{"COMPOUND": "CCCCC/C=C\\C[C@H]1O[C@H]1C/C=C\\C/C=C\\CCCC(=O)O", "TEST SYSTEM": "FABP7 (Homo sapiens)", "Ki": "1.13 µM"}
{"COMPOUND": "CCCCCCCC/C=C\\CCCCCCCC(=O)OC[C@H](O)COP(=O)(O)O", "TEST SYSTEM": "FABP7 (Homo sapiens)", "Ki": "> 50 µM"}

Below is a list of compounds. For each, state its recorded Ki.
1. CCCCC/C=C\C/C=C\C/C=C\C[C@H]1O[C@H]1CCCC(=O)O
2. CCCCC[C@H](O)/C=C/[C@H]1[C@H](O)CC(=O)[C@@H]1C/C=C\CCCC(=O)O [PGE2, prostaglandin E2]
3. CCCCCC(O)C=CC1C(O)CC(=O)C1CC=CCCCC(=O)OCC(O)CO (stereo not shown) [PGE2-GE, prostaglandin E2 glyceryl ester]
4. CCCCCC=CC=C1C(=O)C=CC1CC=CCCCC(=O)O (stereo not shown) [15d-PGJ2, 15-deoxy-Δ^12,14-Prostaglandin J2]
5. CCCCC/C=C\C/C=C\C[C@H]1O[C@H]1C/C=C\CCCC(=O)O

# output
1: 4.3 µM; 2: > 50 µM; 3: > 50 µM; 4: 29.9 µM; 5: 3.16 µM

----------
target: FABP3 (Homo sapiens); assay: Fluorescent probe (DAUDA) displacement from purified FABP3; assay type: binding; details: mean ± S.E., n = 4; Table 1
READOUT KIND: Ki

Consider the reported Ki for these molecules:
{"MOLECULE": "CCCCC[C@H](O)/C=C/[C@@H]1[C@@H](C/C=C\\CCCC(=O)O)[C@@H](O)C[C@H]1O [PGF2α]", "TEST SYSTEM": "FABP3 (Homo sapiens)", "READOUT KIND": "Ki", "VALUE": "> 50 µM"}
{"MOLECULE": "CCCCCC(O)C=CC1C(O)CC(O)C1CC=CCCCC(=O)NCCO (stereo not drawn) [PGF2α-EA, prostamide F2α]", "TEST SYSTEM": "FABP3 (Homo sapiens)", "READOUT KIND": "Ki", "VALUE": "> 50 µM"}
{"MOLECULE": "CCCCCC=CC=C1C(=O)C=CC1CC=CCCCC(=O)O (stereo not shown) [15d-PGJ2, 15-deoxy-Δ^12,14-Prostaglandin J2]", "TEST SYSTEM": "FABP3 (Homo sapiens)", "READOUT KIND": "Ki", "VALUE": "1.22 µM"}
{"MOLECULE": "CCCCCC(O)C=CC1C(O)CC(=O)C1CC=CCCCC(=O)OCC(O)CO (stereo not shown) [PGE2-GE, prostaglandin E2 glyceryl ester]", "TEST SYSTEM": "FABP3 (Homo sapiens)", "READOUT KIND": "Ki", "VALUE": "> 50 µM"}
{"MOLECULE": "CCCCC/C=C\\C[C@H]1O[C@H]1C/C=C\\C/C=C\\CCCC(=O)O [11,12-EET]", "TEST SYSTEM": "FABP3 (Homo sapiens)", "READOUT KIND": "Ki", "VALUE": "0.2 µM"}
{"MOLECULE": "CCCCCCCC/C=C\\CCCCCCCC(=O)OC[C@H](O)COP(=O)(O)O [LPA, oleoyl lysophosphatidic acid]", "TEST SYSTEM": "FABP3 (Homo sapiens)", "READOUT KIND": "Ki", "VALUE": "1.37 µM"}
{"MOLECULE": "CCCCC[C@H]1O[C@H]1C/C=C\\C/C=C\\C/C=C\\CCCC(=O)O [14,15-EET]", "TEST SYSTEM": "FABP3 (Homo sapiens)", "READOUT KIND": "Ki", "VALUE": "0.65 µM"}
{"MOLECULE": "CCCCC[C@H](O)/C=C/[C@H]1[C@H](O)CC(=O)[C@@H]1C/C=C\\CCCC(=O)O [PGE2, prostaglandin E2]", "TEST SYSTEM": "FABP3 (Homo sapiens)", "READOUT KIND": "Ki", "VALUE": "> 50 µM"}

Below is a list of molecules. For each, state its recorded Ki.
1. CCCCC/C=C\C/C=C\C[C@H]1O[C@H]1C/C=C\CCCC(=O)O [8,9-EET]
2. CCCCC/C=C\C/C=C\C/C=C\C[C@H]1O[C@H]1CCCC(=O)O [5,6-EET]

# output
["0.17 µM", "1.44 µM"]

----------
molecular target: FABP5 (Homo sapiens); assay: Fluorescent probe (DAUDA) displacement from purified FABP5; assay type: binding; details: mean ± S.E., n = 4; Table 1; read-out: Ki FABP5
READOUT KIND: pKi
Numbers only, as −log10 of the molar value.

{"COMPOUND": "CCCCC/C=C\\C/C=C\\C[C@H]1O[C@H]1C/C=C\\CCCC(=O)O [8,9-EET]", "TEST SYSTEM": "FABP5 (Homo sapiens)", "VALUE": 5.73}
{"COMPOUND": "CCCCC/C=C\\C/C=C\\C/C=C\\C[C@H]1O[C@H]1CCCC(=O)O [5,6-EET]", "TEST SYSTEM": "FABP5 (Homo sapiens)", "VALUE": 5.45}
{"COMPOUND": "CCCCC/C=C\\C[C@H]1O[C@H]1C/C=C\\C/C=C\\CCCC(=O)O [11,12-EET]", "TEST SYSTEM": "FABP5 (Homo sapiens)", "VALUE": 6.28}
{"COMPOUND": "CCCCCCCC/C=C\\CCCCCCCC(=O)OC[C@H](O)COP(=O)(O)O [LPA, oleoyl lysophosphatidic acid]", "TEST SYSTEM": "FABP5 (Homo sapiens)", "VALUE": 5.49}

# input Need pKi, item CCCCC[C@H]1O[C@H]1C/C=C\C/C=C\C/C=C\CCCC(=O)O [14,15-EET]
# output 5.25

----------
biological target: FABP3 (Homo sapiens, UniProt P05413); experiment: Fluorescent probe (DAUDA) displacement from purified FABP3; format: binding; conditions: inhibitors, Table 3
Sequence (P05413 whole entry): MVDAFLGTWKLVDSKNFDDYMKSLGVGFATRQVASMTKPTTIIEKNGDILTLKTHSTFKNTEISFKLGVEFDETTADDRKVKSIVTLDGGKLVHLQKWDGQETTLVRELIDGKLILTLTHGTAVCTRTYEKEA
READOUT KIND: Ki (nM)
Numbers only, in nM.

# input Hello, I am looking for reported Ki with FABP3 (Homo sapiens, UniProt P05413) for O=C(O)C1[C@H](c2ccccc2)C(C(=O)Oc2cccc3ccccc23)[C@H]1c1ccccc1 (stereo partly shown) . Could you help?
# output 2700

----------
target: FABP5 (Homo sapiens, UniProt Q01469); experiment: Fluorescent probe (DAUDA) displacement from purified FABP5; format: binding
Sequence (Q01469 whole entry): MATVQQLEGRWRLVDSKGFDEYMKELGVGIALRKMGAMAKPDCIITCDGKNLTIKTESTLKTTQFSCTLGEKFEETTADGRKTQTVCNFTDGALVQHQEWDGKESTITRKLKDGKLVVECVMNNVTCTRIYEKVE
READOUT KIND: Ki (µM)
Answers are plain numbers, in µM.

# input Need Ki, item CCCCCC=CC=C1C(=O)C=CC1CC=CCCCC(=O)O (stereo not shown) [15d-PGJ2, 15-deoxy-Δ^12,14-Prostaglandin J2]
# output 12.3

Data origin: paper PMC10502087
